- assay_target: intracellular phosphorylation of EGFR in NCI-H1975 cell line that harbors the EGFR L858R T790M mutations (Homo sapiens, UniProt P00533, L858R/T790M)
- Construct: NCI-H1975 cell line that harbors the EGFR L858R T790M mutations (ATCC, CRL-5908); host or cells: NCI-H1975
- Sequence (P00533 25-1210 T790M/L858R): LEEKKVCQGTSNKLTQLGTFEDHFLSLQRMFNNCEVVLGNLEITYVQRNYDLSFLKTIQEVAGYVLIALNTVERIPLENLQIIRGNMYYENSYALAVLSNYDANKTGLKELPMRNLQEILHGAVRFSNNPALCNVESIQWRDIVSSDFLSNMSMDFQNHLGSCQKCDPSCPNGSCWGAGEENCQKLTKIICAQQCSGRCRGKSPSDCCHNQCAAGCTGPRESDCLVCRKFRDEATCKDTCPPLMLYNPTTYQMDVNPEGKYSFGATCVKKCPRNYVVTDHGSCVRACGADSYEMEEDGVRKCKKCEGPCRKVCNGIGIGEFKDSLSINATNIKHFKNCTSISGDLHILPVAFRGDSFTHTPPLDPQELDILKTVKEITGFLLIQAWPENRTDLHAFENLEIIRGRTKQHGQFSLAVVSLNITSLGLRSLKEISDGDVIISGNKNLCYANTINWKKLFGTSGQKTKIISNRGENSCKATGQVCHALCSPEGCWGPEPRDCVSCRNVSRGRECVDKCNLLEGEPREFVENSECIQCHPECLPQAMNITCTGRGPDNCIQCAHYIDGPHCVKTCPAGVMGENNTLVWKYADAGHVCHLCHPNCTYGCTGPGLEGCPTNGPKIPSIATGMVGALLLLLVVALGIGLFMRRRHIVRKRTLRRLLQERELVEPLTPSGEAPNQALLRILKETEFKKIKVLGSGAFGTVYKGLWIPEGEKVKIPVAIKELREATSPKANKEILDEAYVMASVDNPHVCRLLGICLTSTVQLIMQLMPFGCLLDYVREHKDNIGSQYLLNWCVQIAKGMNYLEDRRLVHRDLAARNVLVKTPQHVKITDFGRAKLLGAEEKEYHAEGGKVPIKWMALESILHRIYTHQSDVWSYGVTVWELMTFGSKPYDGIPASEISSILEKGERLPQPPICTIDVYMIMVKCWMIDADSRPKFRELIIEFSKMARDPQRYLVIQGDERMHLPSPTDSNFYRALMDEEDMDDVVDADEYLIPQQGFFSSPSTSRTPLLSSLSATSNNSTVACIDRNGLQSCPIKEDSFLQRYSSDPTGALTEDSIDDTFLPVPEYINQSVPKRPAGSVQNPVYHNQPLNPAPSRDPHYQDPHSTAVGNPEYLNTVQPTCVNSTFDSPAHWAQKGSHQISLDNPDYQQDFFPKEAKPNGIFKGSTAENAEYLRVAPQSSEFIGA
- test_summary: NCI-H1975 pEGFR AlphaLISA assay
- Assay type: cell-based
- experimental_parameters: NCI-H1975 cells (EGFR L858R T790M), p-EGFR (Tyr1068), 4-5 hours incubation; read-out: Ext pEGFR H1975 GMean IC50 (nM) Protocol: @Pharmaron AlphaLISA (Num)
Record form. Attribute: IC50. Fill in for each entry.

What value of measured IC50 is listed for CC(C)c1cnc(N2CC(N=S(C)(C)=O)C2)c2cnc(Nc3ccnc(N4CC[C@@H](O)[C@@](C)(F)C4)n3)cc12 ? 20 to 30 nM

What value of measured IC50 is listed for CO[C@H]1CCN(c2cc(Nc3cc4c(C(C)C)ccc(N5CC(n6ccnn6)C5)c4cn3)ccn2)C[C@@H]1O (single isomer, unassigned) ? 10 to 20 nM

What value of measured IC50 is listed for CC(C)c1ncc(N2CCC23CN(C)C3)c2cnc(Nc3ccnc(N4CC[C@@H](O)[C@@](C)(F)C4)n3)cc12 ? 30 to 50 nM

What value of measured IC50 is listed for COCC1CN(c2ncc(C(C)C)c3cc(Nc4ccnc(N5CC[C@@H](O)[C@@](C)(F)C5)n4)ncc23)C1 ? 30 to 50 nM

What value of measured IC50 is listed for CCc1cnc(N2CC[C@@H]2C)c2cnc(Nc3ccnc(N4CC[C@@H](O)[C@@](C)(F)C4)n3)cc12 (single isomer, unassigned) ? 30 to 50 nM

What value of measured IC50 is listed for CC(C)c1cnc(N2CC[C@H]2[C@@H](C)O)c2cnc(Nc3ccnc(N4CC[C@@H](O)[C@@](C)(F)C4)n3)cc12 (single isomer, unassigned) ? 20 to 30 nM

What value of measured IC50 is listed for CC(C)c1cnc(N2CC(n3cncn3)C2)c2cnc(Nc3ccnc(N4CC[C@@H](O)[C@@](C)(F)C4)n3)cc12 ? 30 to 50 nM

What value of measured IC50 is listed for CO[C@H]1CN(c2ncc([C@@H](C)CO)c3cc(Nc4ccnc(N5CC[C@@H](O)[C@@](C)(F)C5)n4)ncc23)[C@@H]1C (single isomer, unassigned) [Example 211] ? > 50 nM

What value of measured IC50 is listed for CC(C)c1cnc(N2CCCC2)c2cnc(Nc3ccnc(N4CC[C@@H](O)[C@@](C)(F)C4)n3)cc12 ? > 50 nM

What value of measured IC50 is listed for CC(C)c1ncc(-c2cnn(C)c2)c2cnc(Nc3ccnc(N4CC[C@@H](O)[C@@](C)(F)C4)n3)cc12 ? > 50 nM

What value of measured IC50 is listed for CO[C@H]1CCN(c2nccc(Nc3cc4c(C(C)C)cnc(N5CC[C@H]5C)c4cn3)n2)C[C@H]1OCCO (single isomer, unassigned) ? < 10 nM

What value of measured IC50 is listed for CC(C)c1cnc(N2CC(C3COC3)C2)c2cnc(Nc3ccnc(N4CC[C@@H](O)[C@@](C)(F)C4)n3)cc12 ? 30 to 50 nM

What value of measured IC50 is listed for [2H]C([2H])([2H])O[C@H]1CN(c2ncc(C(C)C)c3cc(Nc4ccnc(N5CC[C@@H](O)[C@@](C)(F)C5)n4)ncc23)[C@@H]1C ? 10 to 20 nM

What value of measured IC50 is listed for C[C@@H]1CCN1c1ncc([C@@H](C)OCC2COC2)c2cc(Nc3ccnc(N4CC[C@@H](O)[C@@](C)(F)C4)n3)ncc12 (single isomer, unassigned) [Example 183] ? > 50 nM

What value of measured IC50 is listed for CC(C)c1cnc(N2CC(CCO)C2)c2cnc(Nc3ccnc(N4CC[C@@H](O)[C@@](C)(F)C4)n3)cc12 ? 20 to 30 nM

What value of measured IC50 is listed for CC(C)c1cnc(N2CC3(CCS3(=O)=O)C2)c2cnc(Nc3ccnc(N4CC[C@@](C)(O)[C@@H](F)C4)n3)cc12 (single isomer, unassigned) [Example 174] ? > 50 nM

What value of measured IC50 is listed for Cc1nnc(-c2cnc(C(C)C)c3cc(Nc4ccnc(N5CC[C@@H](O)[C@@](C)(F)C5)n4)ncc23)o1 ? > 50 nM

What value of measured IC50 is listed for CC(C)c1cnc(N2CC(C(F)F)C2)c2cnc(Nc3ccnc(N4CC[C@@H](O)[C@@](C)(F)C4)n3)cc12 ? 10 to 20 nM

What value of measured IC50 is listed for CNCCO[C@@H]1CCN(c2nccc(Nc3cc4c(C(C)C)cnc(N5CC[C@H]5C)c4cn3)n2)C[C@@H]1F ? 10 to 20 nM

What value of measured IC50 is listed for CC(C)c1cnc(N2CC(C[S+]([O-])C(F)(F)F)C2)c2cnc(Nc3ccnc(N4CC[C@@H](O)[C@@](C)(F)C4)n3)cc12 (stereo partly shown) ? 10 to 20 nM

What value of measured IC50 is listed for CC(C)c1ccc(N2CC3(CCS3(=O)=O)C2)c2cnc(Nc3ccnc(N4CC[C@@H](O)[C@@](C)(F)C4)n3)cc12 ? < 10 nM

What value of measured IC50 is listed for CC(C)c1cnc(N2CC[C@@]23CCN(C)C3)c2cnc(Nc3ccnc(N4CC[C@@H](O)[C@@](C)(F)C4)n3)cc12 (single isomer, unassigned) ? 20 to 30 nM

What value of measured IC50 is listed for Cc1c(-c2ncc(C(C)C)c3cc(Nc4ccnc(N5CC[C@@H](O)[C@@](C)(F)C5)n4)ncc23)nnn1C ? 10 to 20 nM

What value of measured IC50 is listed for Cc1nc(-c2ncc(C(C)C)c3cc(Nc4ccnc(N5CC[C@@H](O)[C@@](C)(F)C5)n4)ncc23)n[nH]1 ? 30 to 50 nM

What value of measured IC50 is listed for COC(=O)N1CC2(CCN2c2ncc(C(C)C)c3cc(Nc4ccnc(N5CC[C@@H](O)[C@@](C)(F)C5)n4)ncc23)C1 ? 30 to 50 nM
